Some sequences, each annotated with its measured PBM binding z-score.
System: LXRa homodimer (NR concentration 270 nM)
Test: PBM binding z-score (relative to random genomic background probes); higher = stronger binding; sequences stand for … in GC…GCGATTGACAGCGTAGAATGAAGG

Sample answers from the record:
[[record]]
residue_string = "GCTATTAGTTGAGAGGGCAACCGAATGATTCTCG"
measurement_kind = "PBM binding z-score"
measured_result = 0.355

[[record]]
residue_string = "CAAACTAGGTCACGGGAAGGTCAAAGTCCGCATG"
measurement_kind = "PBM binding z-score"
measured_result = 4.52

[[record]]
residue_string = "TTACCAAGGTGAGCTGAGGTCGTCGATCCAACTC"
measurement_kind = "PBM binding z-score"
measured_result = -0.506

[[record]]
residue_string = "AATACAGGTTCACTAGGCCAGAGTAGGTACGAAT"
measurement_kind = "PBM binding z-score"
measured_result = 0.711


Incoming: State recorded PBM binding z-score with LXRa homodimer (NR concentration 270 nM), entry "CATAGCAGGCCAATCTGGGTCACTCAAGGCTTGA" , no comment.
Outgoing: -0.00669

Incoming: State recorded PBM binding z-score with LXRa homodimer (NR concentration 270 nM), entry "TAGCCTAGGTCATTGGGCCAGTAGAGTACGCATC" , no comment.
Outgoing: 0.509

---

Test system: PPARg homodimer (NR concentration 180 nM)
Assay: PBM binding z-score (relative to random genomic background probes); higher = stronger binding; sequences stand for … in GC…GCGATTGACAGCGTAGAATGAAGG
So basically: PBM binding z-score at -0.09 or higher? That is Y. Lower than -0.09? That is N.

// below: answered sequences
[[record]]
residue_string = "ACTTACGGGGCAACGAGGTTATAGCACGCGTATA"
assigned_class = "Y"

[[record]]
residue_string = "GCTAGAAGGCCATTTGGGTCACTCAATGACGGGC"
assigned_class = "Y"

[[record]]
residue_string = "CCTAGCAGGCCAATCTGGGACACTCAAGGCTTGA"
assigned_class = "N"


We now examine a further sequence.
Incoming: Please tell me: is the sequence "CAATCTAGGTCAAGGTCAAAGTCGGTTTGTGCCA" at or over -0.09 in terms of PBM binding z-score?
Outgoing: Y

---

Some sequences, each annotated with its measured PBM binding z-score.
Test system: PPARg:RXRa 30nM:10nM, anti-RXR (NR concentration 30 nM, RXRa partner concentration 10 nM)
Experiment: PBM binding z-score (relative to random genomic background probes); higher = stronger binding; sequences stand for … in GC…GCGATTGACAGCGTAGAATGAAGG
Keep the answer to the number alone.

Sample answers from the record:
[[record]]
residue_string = "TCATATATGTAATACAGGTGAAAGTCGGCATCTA"
measured_result = 3.65

[[record]]
residue_string = "AGTCAAAGTTCATCTCGGTAACGTAAGATATGCT"
measured_result = 3.18


Incoming: Note down PBM binding z-score recorded for "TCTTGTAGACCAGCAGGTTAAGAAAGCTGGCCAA"
Outgoing: 2.61

Incoming: Note down PBM binding z-score recorded for "CCTTACGGGTCACTGACAGGTTATCGCATTTGGA"
Outgoing: 1.04

Incoming: Note down PBM binding z-score recorded for "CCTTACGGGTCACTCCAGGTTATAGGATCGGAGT"
Outgoing: 1.12

Incoming: Note down PBM binding z-score recorded for "CAGACTGGGGCAGAAAGGTTACCATACCATCCGG"
Outgoing: 1.29

Incoming: Note down PBM binding z-score recorded for "CCGACTGGGGCAGAAAGGTTACCATGCCATCCGG"
Outgoing: 0.457

---

Tested on: PPARg:RXRa (NR concentration 180 nM, RXRa partner concentration 90 nM)
Experiment: PBM binding z-score (relative to random genomic background probes); higher = stronger binding; sequences stand for … in GC…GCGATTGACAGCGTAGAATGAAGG
Measurement kind: PBM binding z-score

Sample answers from the record:
[[record]]
residue_string = "TAGCCTAGGTCAGATCGGGCCATTATACGCTATA"
measured_result = 0.711

[[record]]
residue_string = "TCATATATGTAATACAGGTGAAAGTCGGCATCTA"
measured_result = 2.09

[[record]]
residue_string = "TCTAGTAGATCAAGCAGGTTAAGAAAGCCTGAGT"
measured_result = -0.406


Incoming: Note down PBM binding z-score recorded for "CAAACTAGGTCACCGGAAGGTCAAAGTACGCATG"
Outgoing: 9.91

Incoming: Note down PBM binding z-score recorded for "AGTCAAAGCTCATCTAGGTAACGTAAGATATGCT"
Outgoing: 0.604

Incoming: Note down PBM binding z-score recorded for "ATCTCTAGGTACAGATAGTTCAGTGAATGCAAAT"
Outgoing: 0.349

Incoming: Note down PBM binding z-score recorded for "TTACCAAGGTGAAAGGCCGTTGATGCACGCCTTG"
Outgoing: 3.77

Incoming: Note down PBM binding z-score recorded for "CAGCCTAGGTCAGGGCCAGTACAGGAGGAACGTT"
Outgoing: 0.833

Incoming: Note down PBM binding z-score recorded for "CCTTACGGGTCACGAGGTTATAACACGACGAGCG"
Outgoing: 7.47

Incoming: Note down PBM binding z-score recorded for "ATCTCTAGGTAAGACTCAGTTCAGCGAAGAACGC"
Outgoing: 0.231

Incoming: Note down PBM binding z-score recorded for "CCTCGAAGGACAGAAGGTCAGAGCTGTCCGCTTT"
Outgoing: 0.0228

Incoming: Note down PBM binding z-score recorded for "GCTGCTAGGTGAACTGATGGTCAGCTAAAGCTCG"
Outgoing: 0.329

Incoming: Note down PBM binding z-score recorded for "GCAGACAGGCGAAACGCAGGTAACTCAGGGTGGC"
Outgoing: 0.297

---

Test system: RARg homodimer (NR concentration 270 nM)
Assay: PBM binding z-score (relative to random genomic background probes); higher = stronger binding; sequences stand for … in GC…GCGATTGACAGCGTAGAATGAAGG
So basically: PBM binding z-score at 2 or higher? That is True. Lower than 2? That is False.

// below: answered sequences
[[record]]
residue_string = "ATCGAAAGGTCCTGAGGTGAGTATACAGAAAGGC"
measured_target = "RARg homodimer (NR concentration 270 nM)"
assigned_class = "False"

[[record]]
residue_string = "ATCGAAAGGTCGAGGTGAATATAGAGAAAGGGAA"
measured_target = "RARg homodimer (NR concentration 270 nM)"
assigned_class = "True"

[[record]]
residue_string = "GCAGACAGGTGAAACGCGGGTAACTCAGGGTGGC"
measured_target = "RARg homodimer (NR concentration 270 nM)"
assigned_class = "False"

[[record]]
residue_string = "TCGAGTAGGTTAGGGGCATTTAGAATGGCGTCGA"
measured_target = "RARg homodimer (NR concentration 270 nM)"
assigned_class = "False"

[[record]]
residue_string = "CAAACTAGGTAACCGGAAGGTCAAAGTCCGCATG"
measured_target = "RARg homodimer (NR concentration 270 nM)"
assigned_class = "True"


Incoming: Please tell me: is the sequence "TCATATAGGTAAGCAGGTGAAAGTCCGTAAGTTA" at or over 2 in terms of PBM binding z-score?
Outgoing: False

Incoming: Please tell me: is the sequence "CCTACCAGGCCAATCTGGGTCACTCAAGGCTTGA" at or over 2 in terms of PBM binding z-score?
Outgoing: False

Incoming: Please tell me: is the sequence "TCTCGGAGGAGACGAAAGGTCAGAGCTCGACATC" at or over 2 in terms of PBM binding z-score?
Outgoing: True

Incoming: Please tell me: is the sequence "ATCTCTAGGTAACCAAGTTCATTGAATGCCGAAC" at or over 2 in terms of PBM binding z-score?
Outgoing: False

---

Some sequences, each annotated with its measured PBM binding z-score.
Tested on: PPARg:RXRa DBDmut IVT, anti-RXR (DBD mutation: RXRa K156A/R161A, NR concentration 270 nM, RXRa partner concentration 90 nM)
Experiment: PBM binding z-score (relative to random genomic background probes); higher = stronger binding; sequences stand for … in GC…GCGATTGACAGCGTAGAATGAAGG
Keep the answer to the number alone.

Incoming: Note down PBM binding z-score recorded for "CCGACTGTGGCAAGGTTACCATAACGCACAGCCA"
Outgoing: 1.15

Incoming: Note down PBM binding z-score recorded for "TAGCCTAGGTCATTCAGGGGCCAGTATCGAAAGC"
Outgoing: 1.77

Incoming: Note down PBM binding z-score recorded for "CCGACTGGGCCATCAGGTCATTGATATCAACGTT"
Outgoing: 3.07

Incoming: Note down PBM binding z-score recorded for "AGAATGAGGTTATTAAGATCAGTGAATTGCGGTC"
Outgoing: 3.14

Incoming: Note down PBM binding z-score recorded for "ATACCAAGGTGATCGTGAGGTCGTTGATACTAAC"
Outgoing: 0.604

Incoming: Note down PBM binding z-score recorded for "TCTTGTAGATCAAAGGTTAATAAAGCCGAAGCCT"
Outgoing: 2.46
